- system: human TrkA receptor (Homo sapiens, UniProt P04629)
- Sequence (P04629 33-796): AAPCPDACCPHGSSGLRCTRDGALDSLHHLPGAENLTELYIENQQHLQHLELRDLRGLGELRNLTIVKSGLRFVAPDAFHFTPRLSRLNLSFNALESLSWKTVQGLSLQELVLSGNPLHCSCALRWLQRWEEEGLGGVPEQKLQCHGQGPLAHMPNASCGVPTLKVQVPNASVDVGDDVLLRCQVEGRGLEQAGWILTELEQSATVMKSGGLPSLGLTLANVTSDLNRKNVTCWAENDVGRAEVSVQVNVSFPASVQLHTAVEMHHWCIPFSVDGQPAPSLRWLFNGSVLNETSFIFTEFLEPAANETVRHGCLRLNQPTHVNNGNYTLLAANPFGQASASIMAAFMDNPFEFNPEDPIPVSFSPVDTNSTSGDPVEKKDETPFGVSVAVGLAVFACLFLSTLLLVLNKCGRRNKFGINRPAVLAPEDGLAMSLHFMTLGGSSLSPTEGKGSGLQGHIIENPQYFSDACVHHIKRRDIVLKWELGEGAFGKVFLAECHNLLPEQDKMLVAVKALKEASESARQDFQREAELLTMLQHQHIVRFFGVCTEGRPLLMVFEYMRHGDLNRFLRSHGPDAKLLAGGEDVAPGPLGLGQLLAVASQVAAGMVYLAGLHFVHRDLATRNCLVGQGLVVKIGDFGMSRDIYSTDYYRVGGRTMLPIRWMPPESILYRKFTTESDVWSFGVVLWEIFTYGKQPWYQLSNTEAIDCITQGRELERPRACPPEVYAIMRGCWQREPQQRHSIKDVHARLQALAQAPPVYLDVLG
- method: DiscoverX PathHunter TrkA functional assay (NGF-stimulated U2OS cells)
- particulars: U2OS cells expressing human TrkA-PK, Shc1-EA and p75NTR; compound 1 h, then NGF at ~80% of maximal response for 3 h; luminescence
pIC50: −log10 of the molar value.
parameter measured: pIC50

O=C(O)c1ccc2[nH]c(-c3ccccc3)c(NC(=O)c3cc(-c4ncccn4)c(C(F)(F)F)cc3F)c2c1	7.96
CC(=O)NCCc1ccn2c(NC(=O)c3ccc(C(F)(F)F)c(-c4ccn(C)n4)c3)c(-c3ccccc3)nc2c1	8.00
O=C(Nc1c(-c2ccccc2)nc2c(F)cccn12)c1ccc(C(F)(F)F)c(-c2cc[nH]n2)c1	7.96

====

- system: human TrkA receptor (Homo sapiens)
- method: DiscoverX PathHunter TrkA functional assay (NGF-stimulated U2OS cells)
- particulars: U2OS cells expressing human TrkA-PK, Shc1-EA and p75NTR; compound 1 h, then NGF at ~80% of maximal response for 3 h; luminescence
parameter measured: IC50 (nM)

Cn1ccc(-c2cc(C(=O)Nc3c(-c4ccccc4)nc4ccc(C(O)C(F)(F)F)cn34)ccc2C(F)(F)F)n1 (single isomer, unassigned) [Compound 65]	12

[P] Cn1ccc(-c2cc(C(=O)Nc3c(-c4ccccc4)nc4scnn34)ccc2C(F)(F)F)n1 [Compound 17]
[Q] CNCCc1ccn2c(NC(=O)c3ccc(C(F)(F)F)c(-c4ccn(C)n4)c3)c(-c3ccccc3)nc2c1 [Compound 109]
Of the two listed items, P and Q , which carries the larger IC50 figure? Your answer should be the label attached to the chosen record.
Q
(Q: 169 nM, P: 9.2 nM)

====

- system: human TrkA receptor (Homo sapiens, UniProt P04629)
- method: DiscoverX PathHunter TrkA functional assay (NGF-stimulated U2OS cells)
- particulars: U2OS cells expressing human TrkA-PK, Shc1-EA and p75NTR; compound 1 h, then NGF at ~80% of maximal response for 3 h; luminescence
parameter measured: IC50 (nM)

Cn1ccc(-c2cc(C(=O)Nc3c(-c4ccccc4)nc4cc(C(C)(C)O)ccn34)c(Cl)cc2C(F)(F)F)n1 [Compound 70]	1.2

[1] Cc1csc(-c2ccn3c(NC(=O)c4ccc(C(F)(F)F)c(-c5ccn(C)n5)c4)c(-c4ccccc4)nc3c2)n1 [Compound 87]
[2] Cn1ccc(-c2cc(C(=O)Nc3nc4ccccc4nc3-c3ccccc3)ccc2C(F)(F)F)n1 [Compound 31]
[3] Cn1ccc(-c2cc(C(=O)Nc3c(-c4ccccc4)nc4cc(C5CCCN5)ccn34)ccc2C(F)(F)F)n1 (single isomer, unassigned) [Compound 114]
[4] CNC(=O)c1ccn2c(NC(=O)c3ccc(C(F)(F)F)c(-c4ccn(C)n4)c3)c(-c3ccccc3)nc2c1 [Compound 25]
Arrange the 4 compounds from largest to smallest IC50. Use the labels to give the ranking in the order requested.
2, 3, 4, 1

====

- system: human TrkA receptor (Homo sapiens, UniProt P04629)
- method: DiscoverX PathHunter TrkA functional assay (NGF-stimulated U2OS cells)
- particulars: U2OS cells expressing human TrkA-PK, Shc1-EA and p75NTR; compound 1 h, then NGF at ~80% of maximal response for 3 h; luminescence
parameter measured: IC50 (nM)

Cn1ccc(-c2cc(C(=O)Nc3c(-c4ccccc4)nc4cc(CCNS(C)(=O)=O)ccn34)ccc2C(F)(F)F)n1 [Compound 102]	4.3

[I] Cn1ccc(-c2cc(C(=O)Nc3c(-c4ccccc4)nc4ccccn34)ccc2C(F)(F)F)n1 [Compound 4]
[II] Cn1ccc(-c2cc(C(=O)Nc3c(-c4ccccc4)nc4c(CO)cccn34)ccc2C(F)(F)F)n1 [Compound 38]
Looking at I and II , which one comes out lower in IC50 terms? Record your answer as the label of the chosen record.
I
